The measurements presented in this section are drawn from patent US20100256137A1.

We begin with a simple list: items and their reported IC50.
# ASSAYED_TARGET: Recombinant human HSP90a (Homo sapiens)
# ASSAY_OVERVIEW: HSP90 radioligand filter binding test ([3H]17AAG competition)
# CONDITIONS_USED: [3H]17AAG 0.08 μM, HSP90 1.5 μg/assay, 22° C., 30 min, pH 7.0; read-out: IC50 (HSP90 inhibition)
# Experimental: In the specific case, a radioligand filter binding test is used. The radioligand used here is tritium-labelled 17-allylaminogeldanamycin, [3H]17AAG. This filter binding test allows a targeted search for inhibitors which interfere with the ATP binding site. […] The filter plates are then measured in a beta counter (Microbeta, Wallac) with scintillator (Microscint 20, Packard). “% of control” is determined from the “counts per minutes” values, and the IC-50 value of a compound is calculated therefrom.

Find the measured IC50: item CC(C)CCc1n[nH]c2cc(O)c(C(=O)N3Cc4ccc(OCCN5CCCCC5)cc4C3)cc12 , target or system Recombinant human HSP90a (Homo sapiens). 10 to 1000 nM

Find the measured IC50: item Cc1cccc(Cc2n[nH]c3cc(O)c(C(=O)N4CCOCC4)cc23)c1 , target or system Recombinant human HSP90a (Homo sapiens). 10 to 1000 nM

Find the measured IC50: item CN(C)CCCOc1ccc2c(c1)CN(C(=O)c1cc3c(CC4CCCCC4)n[nH]c3cc1O)C2 , target or system Recombinant human HSP90a (Homo sapiens). 10 to 1000 nM

Find the measured IC50: item CCN(C)CCOc1ccc2c(c1)CN(C(=O)c1cc3c(CC4CCCCC4)n[nH]c3cc1O)C2 , target or system Recombinant human HSP90a (Homo sapiens). 10 to 1000 nM

Find the measured IC50: item Cc1cccc(Cc2n[nH]c3cc(O)c(C(=O)N4Cc5ccccc5C4)cc23)c1 , target or system Recombinant human HSP90a (Homo sapiens). 10 to 1000 nM

Find the measured IC50: item Cc1cccc(Cc2n[nH]c3cc(O)c(C(=O)N4CCN(C)CC4)cc23)c1 , target or system Recombinant human HSP90a (Homo sapiens). 10 to 1000 nM

Find the measured IC50: item CC(C)Cc1n[nH]c2cc(O)c(C(=O)N3Cc4ccccc4C3)cc12 , target or system Recombinant human HSP90a (Homo sapiens). 10 to 1000 nM

Find the measured IC50: item COc1cccc(Cc2n[nH]c3cc(O)c(C(=O)N4Cc5ccccc5C4)cc23)c1 , target or system Recombinant human HSP90a (Homo sapiens). 10 to 1000 nM

Find the measured IC50: item CC(C)CCc1n[nH]c2cc(O)c(C(=O)N3Cc4ccc(OCCN(C)C)cc4C3)cc12 , target or system Recombinant human HSP90a (Homo sapiens). 10 to 1000 nM

Find the measured IC50: item Cc1cccc(Cc2n[nH]c3cc(O)c(C(=O)N4CCc5ccccc54)cc23)c1 , target or system Recombinant human HSP90a (Homo sapiens). 10 to 1000 nM

----------
# ASSAYED_TARGET: Recombinant human HSP90a (Homo sapiens)
# ASSAY_OVERVIEW: HSP90 radioligand filter binding test ([3H]17AAG competition)
# CONDITIONS_USED: [3H]17AAG 0.08 μM, HSP90 1.5 μg/assay, 22° C., 30 min, pH 7.0; read-out: IC50 (HSP90 inhibition)
pIC50: −log10 of the molar value.
READOUT_KIND: pIC50

A selection of reference data follows.
1. O=C(c1cc2c(CC3CCCC3)n[nH]c2cc1O)N1Cc2ccc(OCCN3CCCCC3)cc2C1 [Compound A40] :: 6.00 to 8.00
2. CN(C)CCCOc1ccc2c(c1)CN(C(=O)c1cc3c(CC4CCCC4)n[nH]c3cc1O)C2 [Compound A34] :: 6.00 to 8.00

Looking for the measured pIC50 of CN1CCC(Oc2ccc3c(c2)CN(C(=O)c2cc4c(CC5CCCC5)n[nH]c4cc2O)C3)CC1 [Compound A31] , can you help? 6.00 to 8.00

Looking for the measured pIC50 of CCCc1n[nH]c2cc(O)c(C(=O)N3Cc4ccccc4C3C(=O)NCC)cc12 (stereo not shown) [Compound A48] , can you help? 5.00 to 6.00

Looking for the measured pIC50 of O=C(c1cc2c(Cc3cccc(Cl)c3)n[nH]c2cc1O)N1CC[C@@H](O)C1 [Compound A7] , can you help? 6.00 to 8.00

Looking for the measured pIC50 of CN1CCC(Oc2ccc3c(c2)CN(C(=O)c2cc4c(CC5CCCCC5)n[nH]c4cc2O)C3)CC1 [Compound A32] , can you help? 6.00 to 8.00

Looking for the measured pIC50 of CCCCc1n[nH]c2cc(O)c(C(=O)N3Cc4ccccc4C3)cc12 [Compound A4] , can you help? 6.00 to 8.00
